The measurements presented in this section are drawn from PubChem BioAssay (NCI).

System: MOLT-4 leukemia
Assay: NCI-60 one-dose screen, 48 h (100 = growth as untreated, 0 = no growth, -100 = all killed)
Conditions: 10 µM unless noted
Compounds without any hit were thinned out: in the full panel of roughly 83,000, 20% have a hit.
Binned growth; ranges: low band: < -10%; middle band: ≥ -10% and < 90%; high band: ≥ 90%

Answered examples (6):
# compound, class
measured = [
    ("COC(=O)c1oc2c(C(=O)/C=C/c3ccc(OC)cc3)c(OCCN3CCOCC3)ccc2c1C", "low band"),
    ("NN=C(c1ccc(Cl)cc1)c1ccc(Cl)cc1", "high band"),
    ("COc1ccc(-c2nn(-c3ccc(NC(=O)Nc4cc(C(F)(F)F)cc(C(F)(F)F)c4)cc3)cc2-c2ccncc2)cc1Cl", "middle band"),
    ("COc1ccc(C2=NN(C(=O)COc3ccc(Cl)cc3)C(O)(c3cc(F)c(Cl)cc3Cl)C2)cc1OC (centres undefined)", "low band"),
    ("NC(CSC(c1ccccc1)(c1ccccc1)c1ccc(F)cc1)C(=O)O (centres undefined)", "middle band"),
    ("COc1ccc(Cl)cc1NC(=O)c1cc2c([nH]1)-c1nc(NC(=O)C(C)(C)C)sc1CC2", "middle band"),
]

Input line: Dear colleague, I would appreciate it if you could identify the bin for C=C1c2c(Cl)ccc(O)c2C(O)=C2C(=O)[C@]3(O)C(O)=C(C(N)=O)C(=O)[C@@H](N(C)C)[C@@H]3[C@@H](O)[C@H]12 and reply at your convenience.
Output line: low band

Input line: Dear colleague, I would appreciate it if you could identify the bin for Cc1c(C(C)(C)C)cc(C(C)(C)C)c2c1CN(C)CO2 and reply at your convenience.
Output line: high band
